System: SK-OV-3 ovarian
assay.notes: NCI tumour cell line growth inhibition, 48 h
Please respond with reported GI50 for every item in the list.

Field GI50 (entry `O=C(c1cc(Cc2n[nH]c(=O)c3ccccc23)ccc1F)N1CCN(C(=O)C2CC2)CC1` ) reads > 100 µM

# GI50 of `COc1ccc2nc3cc(Cl)ccc3c(N3CCN(c4ccnc(N5CCN(C)CC5)n4)CC3)c2c1` = 12.9 µM

Lookup result for `O=S(=O)(NCCCNc1cc(-c2cn(-c3ccccc3)nc2-c2cccc(O)c2)ccn1)c1ccc(F)cc1` ; measured GI50: 4.44 µM

Note to self: GI50 recorded for `COCCOCCOCCOCCOC(=O)OC[n+]1ccc(NC(=NCCCCCCOc2ccc(Cl)cc2)NC#N)cc1` was 11.3 µM

Recorded GI50 (compound `O=S(=O)(NCCCNc1nccc(-c2c(-c3ccc(F)cc3)nc3sccn23)n1)c1ccc(F)cc1` ): 17.1 µM

The reported GI50 of the compound `O=C1/C(=C/c2ccccc2O)N=C(c2ccccc2)N1c1cc(C(F)(F)F)ccc1Cl` was 43.7 µM

Measured GI50 of `N#Cc1cc2c(cc1Cl)Sc1nnc(Nc3cccc4ccccc34)n1S2(=O)=O` : 17.4 µM

Record `Clc1ccc([I+]c2ccc(Cl)cc2Cl)c(Cl)c1` , field GI50: 4.17 µM

So for `O=C1/C(=C/c2ccccc2[N+](=O)[O-])COc2ccc(O)cc21` , the logged GI50 turned out to be 5.25 µM

Reported GI50 of `C=C1C(=O)O[C@H]2[C@H]1CC/C(COC(=O)NCc1c[nH]c3ccc(F)cc13)=C\CC[C@@]1(C)O[C@@H]21` : 11.1 µM

Lab note: `CC1CCN(CCOc2ccc(CNc3ccc4nc(CCC5CCCCC5)[nH]c4c3)cc2)CC1` gave GI50 of 1.81 µM

# GI50 (compound: `COc1cc(-c2ncn(/C=C\c3nnco3)n2)cc(C(F)(F)F)c1` ) is 0.979 µM

The reported value for `Cn1c(C(=O)c2cccc3ccccc23)nc2ccccc21` in terms of GI50 is > 100 µM

Per the records, this compound ( `COc1ccc(S(=O)(=O)N2CCNCC2)cc1OC` ) has GI50 equal to > 100 µM

Reported GI50 ( `CSC1=Nc2c(c(C)c(-c3ccccc3)n2COC(CO)CO)C2=NC(=O)CN12` ) = > 100 µM

Lab note: COc1c(OC(C)C)cc2cc(O)c(C(=O)NC3Cc4ccc(c(Cl)n4)O[C@@H]4C=C5C#C/C(=C\C#CC6OC56C4OC4CC(C)(O)C(O)C(C)O4)C(OC4CC(O)C(N(C)C)C(C)O4)COC3=O)cc2c1OC (some centres not stated) gave GI50 of 2.75 µg/mL

The reported GI50 of the compound COc1cc(/C=C/C(=O)O[C@H]2[C@H](O[C@@H]3O[C@@H](C)[C@H](O)[C@@H](O)[C@H]3O)[C@@H](O)[C@H](OCCc3ccc(O)c(O)c3)O[C@@H]2COC2OCC(O)(CO)C2O)ccc1O (some centres not stated) was > 100 µM

* * *

Test system: NCI/ADR-RES ovarian
assay.notes: NCI tumour cell line growth inhibition, 48 h; in the data active = GI50 below about 0.43 µM; inactive = the rest
Return exactly one item of active, inactive

Lab log entry: C=CCN(CC=C)C(=O)[C@H](CC)[C@@H]1CC[C@@H](C)[C@@H]([C@H](C)[C@@H](O)[C@@H](C)C(=O)[C@H](CC)C2O[C@]3(C=C[C@@H](O)[C@]4(CC[C@@](C)([C@H]5CC[C@](O)(CC)[C@H](C)O5)O4)O3)[C@H](C)C[C@@H]2C)O1 (stereo partly specified) — outcome as called in the assay? inactive

What classification did CN1CCCC1c1cccnc1.O=C(O)c1ccccc1O.O=C([O-])c1ccccc1[OH2+].O=C([O-])c1ccccc1[OH2+].[Mn+2] (stereo unspecified) end up with in this test? inactive

Test call, this molecule: `O=C(c1cc(Cc2n[nH]c(=O)c3ccccc23)ccc1F)N1CCN(C(=O)C2CC2)CC1` inactive

# fetch the recorded call for `c1ccc(C2CCCCC2)c(OCCCCCN2CCNCC2)c1` here inactive

Assay outcome for CC1SC(c2ccc(Cl)cc2)N(CCc2cccs2)C1=O (stereo unspecified) : what was it? inactive

Tell me the recorded outcome of this test for `CSC1=Nc2c(c(C)c(-c3ccccc3)n2COC(CO)CO)C2=NC(=O)CN12` . inactive

Each molecule tested received a call. Report the one for `O=S(=O)(NCCCNc1cc(-c2cn(-c3ccccc3)nc2-c2cccc(O)c2)ccn1)c1ccc(F)cc1` . inactive

Could you check what this test reported for `C=C1C(=O)O[C@H]2[C@H]1CC/C(COC(=O)NCc1c[nH]c3ccc(F)cc13)=C\CC[C@@]1(C)O[C@@H]21` ? inactive

Field: outcome | Entry: `O=C(c1ccco1)c1c(C(F)(F)F)n([O-])c2cc(F)c(F)cc2[n+]1=O` active

Record request — test call for `N#Cc1cc2c(cc1Cl)Sc1nnc(Nc3cccc4ccccc34)n1S2(=O)=O` inactive

Entry `Cc1ccc(-n2c(-c3cc4c([nH]c5ccccc54)c(-c4cccc(O)c4)n3)n[nH]c2=S)cc1` : call = ? inactive
